molecular target: Adrenergic receptor alpha-2 (Rattus norvegicus, UniProt P22086+P19328+P22909); assay: Alpha-2 Adrenoceptor blocking activity as antagonism of clonidine-induced depression of field-stimulated prostatic rat vas deferens; format: functional, tissue-based
Would you mind telling me the reported pA2 of each entry?
No unit in the answer, please; the number alone is enough.

// query pA2 value for entry CCC1[C@@H](CC)N(c2nc(N)c3cc(OC)c(OC)cc3n2)CCN1C(=O)c1ccco1 (stereo in doubt; 11)
5.91

Repeat with COc1cc2nc(N(C)[C@@H]3CCCCC3N(C)C(=O)c3ccco3)nc(N)c2cc1OC (stereo in doubt; 6)
5.54

Repeat with COc1cc2nc(N3CCN(C(=O)c4ccco4)C(C)[C@H]3C)nc(N)c2cc1OC (stereo in doubt; 10)
4.86

Repeat with COc1cc2nc(N3CCN(C(=O)c4ccco4)C4CCCC[C@@H]43)nc(N)c2cc1OC (stereo in doubt; 14)
5.15

Repeat with COc1cc2nc(N3CCN(C(=O)c4ccco4)C(C)[C@H]3C)nc(N)c2cc1OC (stereo in doubt; 9)
6.41

Repeat with COc1cc2nc(N(C)[C@@H]3CCCCC3N(C)C(=O)c3ccco3)nc(N)c2cc1OC (stereo in doubt; 5)
5.41

Repeat with COc1cc2nc(N3CCN(C(=O)c4ccco4)C4CCCC[C@@H]43)nc(N)c2cc1OC (stereo in doubt; 13)
5.08

Repeat with COc1cc2nc(N3CCN(C(=O)c4ccco4)C[C@H]3C)nc(N)c2cc1OC
5.94

Repeat with CCC1[C@@H](CC)N(c2nc(N)c3cc(OC)c(OC)cc3n2)CCN1C(=O)c1ccco1 (stereo in doubt; 12)
5.05

Repeat with COc1cc2nc(NC3CCCCC3NC(=O)c3ccco3)nc(N)c2cc1OC (trans isomer)
5.04

Repeat with COc1cc2nc(N3CCN(C(=O)c4ccco4)C(C)C3)nc(N)c2cc1OC (configuration not stated)
5.23

Repeat with COc1cc2nc(NC3CCCCC3NC(=O)c3ccco3)nc(N)c2cc1OC (cis isomer)
5.96

---

target: Adrenergic receptor alpha-1 (Rattus norvegicus, UniProt P15823+P23944+P43140); experiment: Alpha-1 Adrenoceptor blocking activity as antagonism of norepinephrine-induced contractions of epididymal portion of rat vas deferens; type: functional, tissue-based
MEASURED PARAMETER: pA2
No unit in the answer, please; the number alone is enough.

// query pA2 value for entry CCC1[C@@H](CC)N(c2nc(N)c3cc(OC)c(OC)cc3n2)CCN1C(=O)c1ccco1 (stereo in doubt; 11)
8.55

Repeat with CCC1[C@@H](CC)N(c2nc(N)c3cc(OC)c(OC)cc3n2)CCN1C(=O)c1ccco1 (stereo in doubt; 12)
7.09

Repeat with COc1cc2nc(N3CCN(C(=O)c4ccco4)C(C)[C@H]3C)nc(N)c2cc1OC (stereo in doubt; 10)
7.12

Repeat with COc1cc2nc(N(C)[C@@H]3CCCCC3N(C)C(=O)c3ccco3)nc(N)c2cc1OC (stereo in doubt; 6)
5.64

Repeat with COc1cc2nc(NC3CCCCC3NC(=O)c3ccco3)nc(N)c2cc1OC (trans isomer)
6.07
